Reference source for all entries: ChEMBL document CHEMBL1126299

System: Staphylococcus aureus
Assay: The compound was tested for minimum inhibitory concentration in Staphylococcus aureus,147N penicillin sensitive Staphylococcus aureus
Format: functional
Entries and their MIC values follow.
Recorded endpoint: MIC (µg/mL)

molecule="CC(C)(O/N=C(\\C(=O)N[C@@H]1C(=O)N2C(C(=O)O)=C(CCOC(=O)c3cc(O)c(O)c(Br)c3)CSC12)c1csc(N)n1)C(=O)O (stereo not given in full)" assay_target="Staphylococcus aureus" recorded_endpoint=MIC reported_measurement=8
molecule="CC(C)(O/N=C(\\C(=O)N[C@@H]1C(=O)N2C(C(=O)O)=C(CCNC(=O)CNC(=O)c3cc(O)c(O)c(Br)c3)CSC12)c1csc(N)n1)C(=O)O (stereo not given in full)" assay_target="Staphylococcus aureus" recorded_endpoint=MIC reported_measurement=16
molecule="CC(C)(O/N=C(\\C(=O)N[C@@H]1C(=O)N2C(C(=O)O)=C(CCCC(=O)c3cc(O)c(O)c(Cl)c3)CSC12)c1csc(N)n1)C(=O)O (stereo not given in full)" assay_target="Staphylococcus aureus" recorded_endpoint=MIC reported_measurement=16
molecule="CC(C)(O/N=C(\\C(=O)N[C@@H]1C(=O)N2C(C(=O)O)=C(CCc3ccc(O)c(O)c3)CSC12)c1csc(N)n1)C(=O)O (stereo not given in full)" assay_target="Staphylococcus aureus" recorded_endpoint=MIC reported_measurement=16
molecule="CC(C)(O/N=C(\\C(=O)N[C@@H]1C(=O)N2C(C(=O)O)=C(CCNC(=O)c3cc(O)c(O)c(Br)c3)CSC12)c1csc(N)n1)C(=O)O (stereo not given in full)" assay_target="Staphylococcus aureus" recorded_endpoint=MIC reported_measurement=16

###

Test system: Pseudomonas aeruginosa
Assay: microbe, parasite or virus in culture
Description: In vitro minimum inhibitory concentration against Pseudomonas aeruginosa (PU21).
Entries and their MIC values follow.
Recorded endpoint: MIC (µg/mL)

compound="Nc1nc(/C(=N/OC(C(=O)O)c2ccccc2)C(=O)N[C@@H]2C(=O)N3C(C(=O)O)=C(CNC(=O)c4cc(O)c(O)c(Br)c4)CSC23)cs1 (some centres not stated)" assay_target="Pseudomonas aeruginosa" value_unit=µg/mL operator_symbol== reported_measurement=0.015
compound="CCO/N=C(\\C(=O)N[C@@H]1C(=O)N2C(C(=O)O)=C(CNC(=O)c3cn(CC)c4cc(O)c(O)cc4c3=O)CSC12)c1csc(N)n1 (some centres not stated)" assay_target="Pseudomonas aeruginosa" value_unit=µg/mL operator_symbol== reported_measurement=0.06
compound="CC(C)(O/N=C(\\C(=O)N[C@@H]1C(=O)N2C(C(=O)O)=C(CCOC(=O)c3cc(O)c(O)c(Br)c3)CSC12)c1csc(N)n1)C(=O)O (some centres not stated)" assay_target="Pseudomonas aeruginosa" value_unit=µg/mL operator_symbol== reported_measurement=0.008
compound="C=C(CO/N=C(\\C(=O)N[C@@H]1C(=O)N2C(C(=O)O)=C(CNC(=O)c3cc(O)c(O)c(Br)c3)CSC12)c1csc(N)n1)C(=O)O (some centres not stated)" assay_target="Pseudomonas aeruginosa" value_unit=µg/mL operator_symbol== reported_measurement=0.03
compound="CC(C)(O/N=C(\\C(=O)N[C@@H]1C(=O)N2C(C(=O)O)=C(CCc3ccc(O)c(O)c3)CSC12)c1csc(N)n1)C(=O)O (some centres not stated)" assay_target="Pseudomonas aeruginosa" value_unit=µg/mL operator_symbol== reported_measurement=0.25
compound="CC(C)(O/N=C(\\C(=O)N[C@@H]1C(=O)N2C(C(=O)O)=C(CNC(=O)c3ccc(O)c(O)c3)CSC12)c1csc(N)n1)C(=O)O (some centres not stated)" assay_target="Pseudomonas aeruginosa" value_unit=µg/mL operator_symbol== reported_measurement=0.015
compound="CC(=O)Oc1ccc(C(=O)OCC2=C(C(=O)O)N3C(=O)[C@@H](NC(=O)Cc4cccs4)C3SC2)cc1OC(C)=O (some centres not stated)" assay_target="Pseudomonas aeruginosa" value_unit=µg/mL operator_symbol=> reported_measurement=128
